Entry source: patent US12065505B2

- Procedure Summary: SPR (Biacore) Protein A mAb capture, Compound A injected
- Assay Setup: 37° C., binding to Compound A, apparent, for rank ordering only
Value Kind: Kd

For the molecule 26D5-75576-348-B03-mAb: human IgG1f/kappa mAb; VH SEQ ID NO: 59, VL SEQ ID NO: 88 (antibody, V domains shown) VH: EVQLVESGGGLIQPGGSLRLSCAASGFTVSSNDMSYVRQAPGKGLEWVAYIYSGGRTYYADSVKGRFTISRDNSKNTLYLQMNSLRAEDTAVYYCVTAGFGGGDYWGQGTLVTVSS VL: DIQMTQSPSSVSASVGDRVTITCRASQGISSNLAWYQQKPGKAPKLLIYAASSLQSGVPSRFSGSGSGTDFTLTISSLQPEDFATYYCQQANSFPLTFGGGTKVEIK , what Kd is on record?
<5e-05 s⁻¹
